Entry source: paper PMC4467816

System: human SERT membranes (Homo sapiens, UniProt P31645)
Sequence (P31645 whole entry): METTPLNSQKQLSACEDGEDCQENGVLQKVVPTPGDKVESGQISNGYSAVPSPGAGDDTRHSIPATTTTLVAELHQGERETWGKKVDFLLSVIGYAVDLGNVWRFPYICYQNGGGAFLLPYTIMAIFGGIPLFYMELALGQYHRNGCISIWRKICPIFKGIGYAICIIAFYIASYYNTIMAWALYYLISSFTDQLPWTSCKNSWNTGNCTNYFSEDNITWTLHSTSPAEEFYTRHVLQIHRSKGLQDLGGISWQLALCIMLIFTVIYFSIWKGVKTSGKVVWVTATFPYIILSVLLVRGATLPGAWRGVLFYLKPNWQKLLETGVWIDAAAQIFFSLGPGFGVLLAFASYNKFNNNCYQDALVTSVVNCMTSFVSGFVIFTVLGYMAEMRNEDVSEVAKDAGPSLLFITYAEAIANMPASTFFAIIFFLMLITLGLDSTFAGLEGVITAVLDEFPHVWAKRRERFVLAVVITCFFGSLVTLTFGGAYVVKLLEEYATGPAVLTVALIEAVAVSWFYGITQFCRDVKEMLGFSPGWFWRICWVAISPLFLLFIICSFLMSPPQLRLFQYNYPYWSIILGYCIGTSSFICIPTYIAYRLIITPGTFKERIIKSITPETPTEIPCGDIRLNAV
pKd: −log10 of the molar value.

Test Smiles | pKd
NC[C@@H](O)CCN1c2ccccc2N(c2ccccc2)S1(=O)=O | 4.99
